// drug sensitivity score lookup, one value per entry
# System: FMOC02_1 (patient-derived low-grade serous ovarian cancer cells)
# assayOverview: drug sensitivity score (DSS3, normalised partial AUC of % inhibition dose-response) (DSS (score)); higher = more sensitive (stronger inhibition of viability); extreme values may be limits of the assay
# assayContext: 72 h; library: FO5A; assay format: 2D, 384-well, CellTiter-Glo

{"columns": ["molecule", "drug sensitivity score"],
 "data": [
  ["COc1cc(OC)cc(N(CCNC(C)C)c2ccc3ncc(-c4cnn(C)c4)nc3c2)c1 [Erdafitinib]", 0],
  ["CC[C@@H]1CN(C(=O)NCC(F)(F)F)C[C@@H]1c1cnc2cnc3[nH]ccc3n12 [Upadacitinib]", 0],
  ["O=c1[nH]c(=O)n([C@H]2C[C@H](O)[C@@H](CO)O2)cc1C(F)(F)F [Trifluridine]", 0],
  ["CCN(c1cc(-c2ccc(CN3CCOCC3)cc2)cc(C(=O)NCc2c(C)cc(C)[nH]c2=O)c1C)C1CCOCC1 [Tazemetostat]", 0],
  ["O=c1sn(-c2cccc3ccccc23)c(=O)n1Cc1ccccc1 [Tideglusib]", 0],
  ["O=C(Nc1cccnc1)N1CCC(Cc2cccc(Oc3ccc(C(F)(F)F)cn3)c2)CC1 [PF-3845]", 1.1],
  ["C=CC(=O)Nc1cccc(Oc2nc(Nc3ccc(N4CCN(C)CC4)cc3)nc3ccsc23)c1 [Olmutinib]", 2.3],
  ["CC(C)Cn1cnc2c(N)nc3ccccc3c21 [Imiquimod]", 0],
  ["CC1(C)CNc2cc(NC(=O)c3cccnc3NCc3ccncc3)ccc21 [Motesanib]", 0],
  ["C[C@]1(c2nc3c(C(N)=O)cccc3[nH]2)CCCN1 [Veliparib]", 0.4],
  ["C[C@@H](C(=O)O)c1ccc(-c2ccccc2)c(F)c1 [Tarenflurbil]", 0],
  ["CC(=O)N(O)CCCCCNC(=O)CCC(=O)N(O)CCCCCNC(=O)CCC(=O)N(O)CCCCCN [Deferoxamine]", 0],
  ["C=CC(=O)Nc1cccc(Nc2nc(Nc3ccc(OCCOC)cc3)ncc2F)c1 [Spebrutinib]", 3.1],
  ["CN1CC[C@@H](NC(=O)Nc2ccc(C#N)cc2)C[C@@H]1c1nc2ccccc2[nH]1 [Glasdegib]", 0],
  ["Cc1cn(-c2cc(NC(=O)c3ccc(C)c(Nc4nccc(-c5cccnc5)n4)c3)cc(C(F)(F)F)c2)cn1 [Nilotinib]", 3],
  ["N#Cc1ccc2[nH]c(O)c(-c3ccc(CN4CCOCC4)cn3)c2c1 [AZD-1080]", 1.4],
  ["COc1cc2c(Oc3ccc(NC(=O)C4(C(=O)Nc5ccc(F)cc5)CC4)cc3F)ccnc2cc1OCCCN1CCOCC1 [Foretinib]", 2.6]
]}

###

# Lookup of reported drug sensitivity score keyed by entry
# Tested on: FMOC06 (patient-derived mucinous ovarian cancer cells)
# assayOverview: drug sensitivity score (DSS3, normalised partial AUC of % inhibition dose-response) (DSS (score)); higher = more sensitive (stronger inhibition of viability); extreme values may be limits of the assay
# assayContext: 72 h; library: FO5A; assay format: 2D, 384-well, CellTiter-Glo

{"columns": ["compound", "drug sensitivity score"],
 "data": [
  ["CN(Cc1cnc2nc(N)nc(N)c2n1)c1ccc(C(=O)N[C@@H](CCC(=O)O)C(=O)O)cc1 [Methotrexate]", 0],
  ["CNc1nc(Nc2cn(C(C)(C)C#N)nc2C)ncc1C(F)(F)F", 0],
  ["O=C(NOC[C@H](O)CO)c1ccc(F)c(F)c1Nc1ccc(I)cc1F", 11.3],
  ["Cc1c(F)cc(C(=O)NC2CC2)cc1-c1ccc(C(=O)NCC(C)(C)C)cn1", 1],
  ["NC[C@@](O)(c1ccc(Cl)cc1)c1ccc(-c2cn[nH]c2)cc1", 1.5],
  ["O=C(O)c1ccc(O)c2ncccc12", 1],
  ["Nc1ncnc2c1nc(Cl)n2[C@@H]1O[C@H](CO)[C@@H](O)[C@H]1O", 4.1],
  ["CCCCCOC(=O)Nc1nc(=O)n([C@@H]2O[C@H](C)[C@@H](O)[C@H]2O)cc1F", 0],
  ["Nc1nc2cc(-c3ccc4ncc(C(=O)N5CCOCC5)n4c3)ccc2o1", 3.5]
]}

###

Recorded measurements of drug sensitivity score, one per entry
# System: FMOC06
# assayOverview: drug sensitivity score (DSS3, normalised partial AUC of % inhibition dose-response) (DSS (score)); higher = more sensitive (stronger inhibition of viability); extreme values may be limits of the assay
# assayContext: 72 h; library: FO5A; assay format: 2D, 384-well, CellTiter-Glo

{"columns": ["smilesRepr", "drug sensitivity score"],
 "data": [
  ["Cc1sc2c(c1C)C(c1ccc(Cl)cc1)=N[C@@H](CC(=O)Nc1ccc(O)cc1)c1nnc(C)n1-2", 5.1],
  ["Cn1ncnc1[C@H]1c2n[nH]c(=O)c3cc(F)cc(c23)N[C@@H]1c1ccc(F)cc1", 2.2],
  ["COc1cc(C(=O)O)ccc1NC(=O)[C@@H]1N[C@@H](CC(C)(C)C)[C@](C#N)(c2ccc(Cl)cc2F)[C@H]1c1cccc(Cl)c1F", 5.3],
  ["Nc1nc2[nH]cc(CCc3ccc(C(=O)N[C@@H](CCC(=O)O)C(=O)O)cc3)c2c(=O)[nH]1", 0.3]
]}

###

# System: FMOC27 (patient-derived low-grade serous ovarian cancer cells)
# assayOverview: drug sensitivity score (DSS3, normalised partial AUC of % inhibition dose-response) (DSS (score)); higher = more sensitive (stronger inhibition of viability); extreme values may be limits of the assay
# assayContext: 72 h; library: FO5A; assay format: 2D, 384-well, CellTiter-Glo
drug sensitivity score overview
observationType: drug sensitivity score

{"columns": ["compound", "systemName", "measuredValue"],
 "data": [
  ["Cc1cc(F)c(C(=O)Nc2cccc(-c3nncn3C(C)C)n2)cc1-n1cnc(C2CC2)c1 [Selonsertib]", "FMOC27", 0],
  ["CNC(=O)c1ccc2cc([C@@]3(O)CCn4cncc43)ccc2c1 [Orteronel]", "FMOC27", 0],
  ["CC[C@@](C)(Nc1ccnc(-c2c[nH]c3ncccc23)n1)C(=O)NCC(F)(F)F [Decernotinib]", "FMOC27", 0],
  ["Cc1ccc(NC(=O)c2ccc(CN3CCN(C)CC3)cc2)cc1Nc1nccc(-c2cccnc2)n1 [Imatinib]", "FMOC27", 0],
  ["C[C@]12CC[C@H](O)CC1=CC[C@@H]1[C@@H]2CC[C@]2(C)C(c3cccnc3)=CC[C@@H]12 [Abiraterone]", "FMOC27", 0],
  ["O=C(O)CNC(=O)c1c(O)c2ccccc2n(Cc2ccccc2)c1=O [IOX-2]", "FMOC27", 0],
  ["Cn1ncc(Cl)c1-c1cc(C(=O)N[C@H](CN)Cc2cccc(F)c2)sc1Cl [Afuresertib]", "FMOC27", 5.4],
  ["CC(C)N(C[C@H]1O[C@@H](n2cnc3c(N)ncnc32)[C@H](O)[C@@H]1O)[C@H]1C[C@@H](CCc2nc3cc(C(C)(C)C)ccc3[nH]2)C1 [Pinometostat]", "FMOC27", 0],
  ["CN(C)C(=N)NC(=N)N [Metformin]", "FMOC27", 0],
  ["COc1cc2nccc(Oc3ccc(NC(=O)Nc4cc(C)on4)c(Cl)c3)c2cc1OC [Tivozanib]", "FMOC27", 1.5],
  ["CN(C(=O)c1ccc(F)cc1C(F)(F)F)C1CCN(c2nnc(-c3ccnn3C)c3ccccc23)CC1 [Taladegib]", "FMOC27", 0],
  ["CCCCOc1nc(N)c2c(n1)N(Cc1cccc(CN3CCCC3)c1)CC(=O)N2 [Vesatolimod]", "FMOC27", 0],
  ["CNC(=O)[C@@H](NC(=O)[C@H](CC(C)C)[C@H](O)C(=O)NO)C(C)(C)C [Marimastat]", "FMOC27", 0],
  ["Cc1ccc(NC(=O)c2ccc(CN3CC[C@H](N(C)C)C3)c(C(F)(F)F)c2)cc1Nc1nccc(-c2cncnc2)n1 [Bafetinib]", "FMOC27", 0],
  ["FC(F)(F)c1ccc(CNc2ccc(Cc3c[nH]c4ncc(Cl)cc34)cn2)cn1 [Pexidartinib]", "FMOC27", 0],
  ["CC(C)N(CCCNC(=O)Nc1ccc(C(C)(C)C)cc1)C[C@H]1O[C@@H](n2cc(Br)c3c(N)ncnc32)[C@H](O)[C@@H]1O [SGC0946]", "FMOC27", 1.8],
  ["NCCNc1ccc(NCCN)c2c1C(=O)c1ccncc1C2=O [Pixantrone]", "FMOC27", 0],
  ["C[C@]12CC[C@@H]3c4ccc(O)cc4C[C@@H](CCCCCCCCC[S+]([O-])CCCC(F)(F)C(F)(F)F)[C@H]3[C@@H]1CC[C@@H]2O (some centres not stated) [Fulvestrant]", "FMOC27", 0],
  ["CCN(CC)CCNC(=O)c1c(C)[nH]c(/C=C2\\C(=O)Nc3ccc(F)cc32)c1C [Sunitinib]", "FMOC27", 0],
  ["Cn1cnc2c(F)c(Nc3ccc(Br)cc3F)c(C(=O)NOCCO)cc21 [Binimetinib]", "FMOC27", 2.2],
  ["C=CCc1cccc(/C=N/NC(=O)CN2CCN(Cc3ccccc3)CC2)c1O [PAC-1]", "FMOC27", 0],
  ["Cc1ccc(C(=O)N(CCCN)[C@@H](c2oc3cc(Cl)ccc3c(=O)c2Cc2ccccc2)C(C)C)cc1", "FMOC27", 0],
  ["Cn1ncnc1[C@H]1c2n[nH]c(=O)c3cc(F)cc(c23)N[C@@H]1c1ccc(F)cc1 [Talazoparib]", "FMOC27", 5.5],
  ["C[C@H]1C[C@@H](n2c(Nc3ccc(OC(F)(F)F)cc3)nc3cc(CCC(=O)O)ccc32)CC(C)(C)C1", "FMOC27", 0],
  ["O=C1NC(=O)[C@@H](c2cn3c4c(cccc24)CCC3)[C@@H]1c1c[nH]c2ccccc12 [Tivantinib]", "FMOC27", 2.5],
  ["CC(C)(C)Cn1c(N)nc2ccc(-c3[nH]c(C(C)(C)C)nc3-c3ccc(F)cc3)nc21 [Ralimetinib]", "FMOC27", 3.2],
  ["Cc1c(C(=O)Nc2ccc(N3C[C@@H](C)O[C@@H](C)C3)nc2)cccc1-c1ccc(OC(F)(F)F)cc1 [Sonidegib]", "FMOC27", 0],
  ["CC1=C(/C=C/C(C)=C/C=C/C(C)=C/C(=O)O)C(C)(C)CCC1 [Tretinoin]", "FMOC27", 0],
  ["C[C@@H](Nc1cc(F)cc(F)c1)c1cc(C(=O)N(C)C)cc2c(=O)cc(N3CCOCC3)oc12 [AZD-8186]", "FMOC27", 5.3],
  ["COc1cc2c(cc1OCCCN1CCCC1)N=C(N)C21CCC1 [A-366]", "FMOC27", 0],
  ["CC(C)(C#N)c1cc(Cn2cncn2)cc(C(C)(C)C#N)c1 [Anastrozole]", "FMOC27", 0],
  ["S=C(NCc1ccc2c(c1)OCO2)N1CCN(c2ncnc3c2oc2ccccc23)CC1 [Amuvatinib]", "FMOC27", 0]
]}
